Origin of measurements: PubChem BioAssay AID1919001

- Test system: 699152-130-R-J1-PDC complex spheroid growth
- procedure-details: Anticancer human tumor 699152-130-R-J1-PDC patient-derived pancreatic carcinoma cell line growth inhibition [AhR]
- cond: second compound 0.316 µM; first compound 0.316 µM; stronger effect = lower value
endpoint-label: viability, T/C (%)
Numbers only; they are read as %.

QUERY: For the compound COc1cc(C2c3cc4c(cc3C(OC3OC5COC(C)OC5C(O)C3O)C3COC(=O)C23)OCO4)cc(OC)c1O (stereo not drawn) + Cc1cncc(-c2nc(NCCc3c[nH]c4ccccc34)c3ncn(C(C)C)c3n2)c1 , give its measured viability, T/C value.
RESULT: 80.2

QUERY: For the compound COc1ccc([C@@H](O)c2cc(-c3ncnc4cc(N5CCOCC5)ccc34)c(F)cc2Cl)nn1 + Cc1cncc(-c2nc(NCCc3c[nH]c4ccccc34)c3ncn(C(C)C)c3n2)c1 , give its measured viability, T/C value.
RESULT: 89.2

QUERY: For the compound COc1cc(C2c3cc4c(cc3C(OC3OC5COC(C)OC5C(O)C3O)C3COC(=O)C23)OCO4)cc(OC)c1O (stereo not drawn) + Cc1ccccc1N=Nc1ccc(NC(=O)c2ccnn2C)c(C)c1 , give its measured viability, T/C value.
RESULT: 66.2

====

Reported viability, T/C by item:
- Tested on: 699152-130-R-J1-PDC complex spheroid growth
- procedure-details: Anticancer human tumor 699152-130-R-J1-PDC cell line growth inhibition [AhR];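 also: compound exposure lasted 7 days after spheroids had grown for 3 days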
- cond: second compound 0.316 µM; first compound 0.316 µM; stronger effect = lower value
Numbers only; they are read as %.

Reference set (10 entries):
compound	unit-tag	viability, T/C
COc1ccc([C@@H](O)c2cc(-c3ncnc4cc(N5CCOCC5)ccc34)c(F)cc2Cl)nn1 + Cc1ccccc1N=Nc1ccc(NC(=O)c2ccnn2C)c(C)c1	%	97.5
CC1COCCN1c1cc(-c2ccnn2C)c2ccnc(-c3ccn[nH]3)c2n1 (configuration not stated) + Cc1cncc(-c2nc(NCCc3c[nH]c4ccccc34)c3ncn(C(C)C)c3n2)c1	%	81.6
O=C(c1cc(Cc2n[nH]c(=O)c3ccccc23)ccc1F)N1CCN(C(=O)C2CC2)CC1 + Cc1cncc(-c2nc(NCCc3c[nH]c4ccccc34)c3ncn(C(C)C)c3n2)c1	%	111
COc1cc(Nc2ncc3c(n2)-c2ccc(Cl)cc2C(c2c(F)cccc2OC)=NC3)ccc1C(=O)O + Cc1ccccc1N=Nc1ccc(NC(=O)c2ccnn2C)c(C)c1	%	65.5
Nc1ncn(C2CC(O)C(CO)O2)c(=O)n1 (configuration not stated) + CC(CO)NC(=O)c1cc(-c2ccc(Cl)cc2)nn(-c2cnn(C)c2)c1=O	%	87.8
CC1COCCN1c1cc(C2(S(C)(=N)=O)CC2)nc(-c2ccnc3[nH]ccc23)n1 (configuration not stated) + Cc1cncc(-c2nc(NCCc3c[nH]c4ccccc34)c3ncn(C(C)C)c3n2)c1	%	114
Nc1ncn(C2CC(O)C(CO)O2)c(=O)n1 (configuration not stated) + Cc1ccccc1N=Nc1ccc(NC(=O)c2ccnn2C)c(C)c1	%	85.6
CC1(C)CCC(CN2CCN(c3ccc(C(=O)NS(=O)(=O)c4ccc(NCC5CCOCC5)c([N+](=O)[O-])c4)c(Oc4cnc5[nH]ccc5c4)c3)CC2)=C(c2ccc(Cl)cc2)C1 + CC(CO)NC(=O)c1cc(-c2ccc(Cl)cc2)nn(-c2cnn(C)c2)c1=O	%	96.5
COc1cc(C2c3cc4c(cc3C(OC3OC5COC(C)OC5C(O)C3O)C3COC(=O)C23)OCO4)cc(OC)c1O (configuration not stated) + CC(CO)NC(=O)c1cc(-c2ccc(Cl)cc2)nn(-c2cnn(C)c2)c1=O	%	74
O=C(C=Cc1cccc(S(=O)(=O)Nc2ccccc2)c1)NO + Cc1ccccc1N=Nc1ccc(NC(=O)c2ccnn2C)c(C)c1	%	106

QUERY: State the measured viability, T/C (699152-130-R-J1-PDC complex spheroid growth) of NS(=O)(=O)OCC1CC(n2ccc3c(NC4CCc5ccccc54)ncnc32)CC1O (configuration not stated) + CC(CO)NC(=O)c1cc(-c2ccc(Cl)cc2)nn(-c2cnn(C)c2)c1=O
RESULT: 97.2

QUERY: State the measured viability, T/C (699152-130-R-J1-PDC complex spheroid growth) of Nc1ccccc1NC(=O)c1ccc(CNC(=O)OCc2cccnc2)cc1 + CC(CO)NC(=O)c1cc(-c2ccc(Cl)cc2)nn(-c2cnn(C)c2)c1=O
RESULT: 107
